Target: NHERF4_4, Q86UT5
Sequence (Q86UT5 464-550): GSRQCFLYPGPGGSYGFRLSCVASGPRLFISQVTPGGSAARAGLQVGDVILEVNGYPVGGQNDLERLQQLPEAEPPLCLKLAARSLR
Experiment: holdup assay
Parameters: key: below the threshold = too weak to quantify, mostly under pKd 3.1 to 4
Conditions: plain residues with an end cap or a label only (N-terminal biotin on a linker: ado-ado)
Recorded endpoint: pKd

>>> print(df.to_string())
                                binder  recorded_endpoint               result
0           LLQEEWETVM [PTH1R, Q03431]                pKd  below the threshold
1         NNMAFETTHF [SLC5A12, Q1EHB4]                pKd  below the threshold
2           PEKVSNTTVV [IGSF5, Q9NSI5]                pKd  below the threshold
3  NTALVESEDL [PALLS, Q8WX93;Q8WX93-1]                pKd  below the threshold
